All values here come from ChEMBL document CHEMBL1151870.

- tgt: Glycogen phosphorylase, liver form (Rattus norvegicus)
- Sequence (P09811 whole entry): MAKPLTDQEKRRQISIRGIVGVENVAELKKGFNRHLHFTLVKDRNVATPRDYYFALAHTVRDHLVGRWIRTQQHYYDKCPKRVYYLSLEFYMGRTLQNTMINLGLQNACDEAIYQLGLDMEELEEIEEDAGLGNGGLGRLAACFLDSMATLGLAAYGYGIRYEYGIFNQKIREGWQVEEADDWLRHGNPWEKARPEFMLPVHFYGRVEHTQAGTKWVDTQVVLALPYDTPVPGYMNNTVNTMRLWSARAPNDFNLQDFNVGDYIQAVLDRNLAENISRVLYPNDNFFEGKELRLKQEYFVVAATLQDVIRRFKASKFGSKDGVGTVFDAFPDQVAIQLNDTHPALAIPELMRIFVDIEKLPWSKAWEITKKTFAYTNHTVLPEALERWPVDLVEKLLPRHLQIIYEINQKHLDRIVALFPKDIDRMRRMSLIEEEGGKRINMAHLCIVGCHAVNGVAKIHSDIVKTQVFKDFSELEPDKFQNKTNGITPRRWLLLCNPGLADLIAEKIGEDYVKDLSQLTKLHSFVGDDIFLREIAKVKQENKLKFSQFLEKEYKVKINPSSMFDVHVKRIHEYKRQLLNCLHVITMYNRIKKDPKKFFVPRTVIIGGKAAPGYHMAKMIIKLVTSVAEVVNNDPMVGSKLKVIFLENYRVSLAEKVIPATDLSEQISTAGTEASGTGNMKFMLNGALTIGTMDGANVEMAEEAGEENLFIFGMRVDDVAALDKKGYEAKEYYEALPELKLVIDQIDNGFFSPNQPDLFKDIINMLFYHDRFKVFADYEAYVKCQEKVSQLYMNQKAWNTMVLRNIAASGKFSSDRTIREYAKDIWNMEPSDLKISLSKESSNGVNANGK
measurementLabel: pIC50
Numbers only, as −log10 of the molar value.

Query: Please list pIC50 recorded for the compound `O=C(/C=C/c1ccc2ccccc2c1)C[C@@H]1O[C@H](CO)[C@@H](O)[C@H](O)[C@H]1O`
Result: 4.01
